Hey, just so you know, these numbers are from patent US8273769B2.

test.system: CRTH2 (Homo sapiens, UniProt Q9Y5Y4)
Sequence (Q9Y5Y4 1-395): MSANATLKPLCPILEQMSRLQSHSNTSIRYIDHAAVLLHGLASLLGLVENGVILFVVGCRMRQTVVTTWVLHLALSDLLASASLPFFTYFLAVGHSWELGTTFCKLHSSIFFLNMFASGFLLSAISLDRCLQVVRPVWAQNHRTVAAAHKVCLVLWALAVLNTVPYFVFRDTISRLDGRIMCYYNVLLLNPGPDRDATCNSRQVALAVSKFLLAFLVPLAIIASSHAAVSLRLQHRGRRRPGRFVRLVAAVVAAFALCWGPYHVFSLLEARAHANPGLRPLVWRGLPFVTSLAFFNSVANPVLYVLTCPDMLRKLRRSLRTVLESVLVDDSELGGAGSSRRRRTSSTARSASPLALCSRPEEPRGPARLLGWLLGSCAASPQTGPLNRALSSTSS
assay.protocol: Radioligand binding Scintillation Proximity Assay ([3H]PGD2, hCRTH2-CHO cell membranes)
Parameters: host or cells: CHO cells
test.context: 1.5 nM [3H]PGD2, hCRTH2-CHO cell membranes, SPA
measured.property: IC50 (nM)
Please give a number only; it is taken to be in nM.

Look up IC50 for this compound: CCc1ccc(S(C)(=O)=O)cc1C#Cc1cc(Cl)ccc1OCC(=O)O
3

Quick check: IC50 of COC1c2ccc(C#Cc3cc(Cl)ccc3OCC(=O)O)cc2S(=O)(=O)C1(C)C (centres unmarked) ?
24

I am curious: what IC50 value has been reported for Cc1cc[n+]([O-])cc1C#Cc1cc(Cl)ccc1OCC(=O)O ?
19

I have this compound here, O=C(O)COc1cc(F)ccc1C#Cc1ccccc1Cl , and I need its recorded IC50.
5940

Returns the measured IC50 for the input compound. Input: CCCS(=O)(=O)c1ccc(F)c(C#Cc2cc(Cl)ccc2OC(C)(C)C(=O)O)c1
287
